assay: Particle size and PDI of lipid nanoparticles by dynamic light scattering; assay type: physicochemical; settings: lipid nanoparticles with luciferase mRNA; ionizable lipid/cholesterol/DSPC/DMG-PEG2000 50/38.5/10/1.5 mol%
# Particle-size distribution (PDI) values compiled below

{"COMPOUND": "CCCCCCCCCOC(=O)CCCCCCCN(CCO)CCCCCCC(C)(C)C(=O)OC(CCCCCCCC)CCCCCCCC [1a]", "Particle-size distribution (PDI)": 0.022}
{"COMPOUND": "CCCCCCCCCOC(=O)CCCCC(C)(C)CCN(CCO)CCCCCCC(=O)OCC(CCCCCCCC)CCCCCCCC [70a]", "Particle-size distribution (PDI)": 0.15}
{"COMPOUND": "CCCCCCCCCCC(=O)OCC(C)(C)CCCCCN(CCCCO)CCCCCCCC(=O)OC(CCCCCCCCC)CCCCCCCCC [17b]", "Particle-size distribution (PDI)": 0.030}
{"COMPOUND": "CCCCCCCCCOC(=O)OCCCCCCN(CCCO)CCCCCCC(C)(C)C(=O)OC(CCCCCCCC)CCCCCCCC [32a]", "Particle-size distribution (PDI)": 0.10}
